# assay.explanation: yeast 75Q aggregation reduction – 75Q-TubU reporter (AID 1593)
# study.conditions: Yeast 75Q polyglutamine aggregation reporter
Binary classification by score, with 1 as an inclusive lower bound for y; all other cases are n.

Use the examples below as a reference point.
1. COc1ccc(CN(CCN(C)C)c2ncccn2)cc1 ... y
2. Nc1c2c(nc3ccccc13)CCCC2O (stereo not given) ... y
3. CC1=NN(c2ccccc2)C(=O)C1 ... y
4. N[C@@H](Cc1ccc(O)c(O)c1)C(=O)O ... y
5. NS(=O)(=O)c1cc(C(=O)O)c(NCc2ccco2)cc1Cl ... y
6. CCN(CC)CCNC(=O)c1cc(S(C)(=O)=O)ccc1OC ... y
7. O=C(O)CCC(=O)Nc1ccc(S(=O)(=O)Nc2nccs2)cc1 ... y
8. Cc1ccccc1N1C(=O)c2cc(S(N)(=O)=O)c(Cl)cc2NC1C (stereo not given) ... y

Determine whether measured score meets or exceeds 1 for CCOC(=O)c1ccc(N)cc1
y

Assess whether reported score for CC(C)(Oc1ccc(Cl)cc1)C(=O)O sits at 1 or higher.
y

State whether the measured score reaches 1, counting equality as reaching it, for O=C(O)c1ccccc1O
n

Given CC(=O)Nc1ccc(O)cc1 , state whether its score is at least 1.
y

Given CC(CN(C)C)CN1c2ccccc2CCc2ccccc21 (stereo not given) , state whether its score is at least 1.
y

Does the compound O=C(CCBr)N1CCN(C(=O)CCBr)CC1 have recorded score that is 1 or more?
n

For this compound, is measured score 1 or higher? NC(N)=NCCN1CCCCCCC1
y

Decide: score of Nc1nc(=S)c2[nH]cnc2[nH]1 >= 1?
y

I'd appreciate it if you could say whether Cc1ccc(C(=O)C(C)CN2CCCCC2)cc1 (stereo not given) has score at least equal to 1.
n

Is score at least 1? Consider Cc1cccc(C)c1OCC(C)N (stereo not given)
y

Reported score at or above 1? CSc1ccc2c(c1)C(N1CCN(C)CC1)Cc1ccccc1S2 (stereo not given)
n

====

# assay.explanation: CRL1545 cell growth, single agent and combined, cisplatin and BGB IC20 combos (AID 1671464);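 further: cells exposed to compound for 96 hours before readout; 0% = vehicle DMSO and 100% = high DMSO killing control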
# study.conditions: CRL1545 osteosarcoma cells, single agent, at 0.05 µM, stronger effect = higher value
measured.attribute: inhibition (%)
The reply should contain only the number, in %.

1. Cc1nc2ccc(CN(C)c3ccc(C(=O)N[C@@H](CCC(=O)O)C(=O)O)s3)cc2c(=O)[nH]1 ... 0.207

Entry Cc1oncc1C(=O)Nc1ccc(C(F)(F)F)cc1 — recorded inhibition = -28.9

Form: molecule = C[C@H]1COc2c(C3(N)CC3)c(F)cc3c(=O)c(C(=O)O)cn1c23 ; inhibition = -13.5

GET /value?item= Nc1[nH]c(=O)ncc1F &field=inhibition returns -16.8

====

Measured inhibition, listed per entry for reference.
# assay.target: Single-stranded DNA-binding protein (Escherichia coli (strain K12))
# assay.explanation: SSB-ssDNA binding inhibitors – biochemical, fluorescence polarization, NIH Clinical Collection, counter-screen for HCV NS3 helicase inhibitor project (AID 743271)
# study.conditions: E. coli SSB-DNA binding, stronger effect = higher value, concentration not given here
Enter your answer as a number in %; do not include the unit.

1. CC1CCN(CCCC(=O)c2ccc(F)cc2)CC1 ... 1.97
2. Nc1nc(N)nc(-c2cc(Cl)ccc2Cl)n1 ... 2.21
3. CN(C/C=C/C#CC(C)(C)C)Cc1cccc2ccccc12 ... 4.52
4. O=C1[C@H]2CCCC[C@H]2C(=O)N1CCCCN1CCN(c2nsc3ccccc23)CC1 ... -2.41
5. COc1cc(C)nc(-n2nc(C)cc2OC)n1 ... 5.91

Recorded inhibition (molecule C#C[C@]1(O)CC[C@H]2[C@@H]3CCc4cc(O)ccc4[C@H]3CC[C@@]21C ): -0.87

Sample Cn1nnc2c(C(N)=O)ncn2c1=O ; inhibition observed: -0.87

Quick note, inhibition for C[C@]12C[C@H](O)[C@H]3[C@@H](CCC4=CC(=O)CC[C@@]43C)[C@@H]1CC[C@@H]2C(=O)CO landed at 1.97

For reference, reported inhibition for COCc1c(C(C)C)nc(C(C)C)c(/C=C/[C@@H](O)C[C@@H](O)CC(=O)O)c1-c1ccc(F)cc1 stands at -2.41

In plain terms, CCN1CCN(c2cc3c(cc2F)c(=O)c(C(=O)O)cn3C2CC2)CC1 has a documented inhibition of 0.39

Lookup result for Clc1ccc2c(c1)CCc1cccnc1C2=C1CCNCC1 ; measured inhibition: -3.54

Sample CCc1nn(CCCN2CCN(c3cccc(Cl)c3)CC2)c(=O)n1CCOc1ccccc1 ; inhibition observed: 3.75

Item: C[C@@H]1C[C@H]2[C@@H]3C[C@H](F)C4=CC(=O)C(Cl)=C[C@]4(C)[C@@]3(F)[C@@H](O)C[C@]2(C)[C@@]1(O)C(=O)CO | inhibition: 7.6

For reference, reported inhibition for CCN1CCC[C@H]1CNC(=O)c1c(O)c(Cl)cc(Cl)c1OC stands at 7.6

Summary for this molecule, NC(N)=Nc1nc(CSCC/C(N)=N/S(N)(=O)=O)cs1 : inhibition is 6.83

====

# assay.explanation: growth inhibition of GSK3B-pretreated HCT116 cells – cell-based, CellTiter-Glo, 0.2 to 20 µM (AID 1117336)
# study.conditions: HCT116 viability after GSK3B inhibitor, at 20 µM, stronger effect = higher value
measured.attribute: viability decrease (%)
Just the number please, in %, no unit attached.

Known results for molecules:
1. NC(=O)c1ccccc1O ... 5.6
2. C[C@]12C=CC(=O)C=C1CC[C@H]1[C@@H]3C[C@@H](O)[C@](O)(C(=O)CO)[C@@]3(C)C[C@H](O)[C@@]12F ... 8.2
3. Clc1ccc2nsnc2c1NC1=NCCN1 ... 1.1
4. Oc1cccc(O)c1 ... -0.8
5. C[n+]1cc2c3c(ccc2c2ccc4cc5c(cc4c21)OCO5)OCO3 ... 99.8

The recorded viability decrease for CC(=O)Oc1cccc2c1C(=O)c1c(OC(C)=O)cc(C(=O)O)cc1C2=O is 106

Sample O=C(CCCN1CCN(c2ccccn2)CC1)c1ccc(F)cc1 ; viability decrease observed: 31.5

Lab note: CN(C)CCCN1c2ccccc2Sc2ccc(C(F)(F)F)cc21 gave viability decrease of 68.5

Lab note: measured viability decrease of CCCCN(CCCC)CCCOC(=O)c1ccc(N)cc1 was -47.6

Record O=C(NCCN1CCOCC1)c1ccc(Cl)cc1 . Reported viability decrease: -7.6

Per the records, this molecule ( N#Cc1ccc(C(c2ccc(C#N)cc2)n2cncn2)cc1 ) has viability decrease equal to -9.1

# viability decrease (molecule: O=c1oc2c(O)c(O)cc3c(=O)oc4c(O)c(O)cc1c4c23 ) is 24.7

Reported viability decrease ( CC(=O)OC(C)C[N+](C)(C)C (stereo not given) ) = -1.9

Noted for CCN(CC)CCOC(=O)C(Cc1cccc2ccccc12)CC1CCCO1 (stereo not given) : its viability decrease reads -120

viability decrease measured on NC(=NCCCCCCN=C(N)/N=C(\N)Nc1ccc(Cl)cc1)/N=C(\N)Nc1ccc(Cl)cc1 = 120

Field viability decrease (entry Nc1ccc(S(=O)(=O)Nc2ccnn2-c2ccccc2)cc1 ) reads -8.8

Sure, the documented viability decrease for CC(=O)OCC1=C(C(=O)O)N2C(=O)[C@@H](NC(=O)Cc3cccs3)[C@H]2SC1 is 33.1

Just so you know, measured viability decrease for Fc1ccc(C(c2ccc(F)cc2)N2CCN(C/C=C/c3ccccc3)CC2)cc1 came out at 108

Please fill in: viability decrease reported for O=C1C(O)=C(O)C(=O)C(O)=C1O = -21

====

# assay.explanation: Wnt pathway potentiators raising nuclear beta-catenin – imaging, WNT3A-conditioned medium, mouse C2C12, NPC library, primary screen (AID 1117326); further: reference of the scale not given here
# study.conditions: stimulation, at 2 µM, stronger effect = higher value
Peptide text beside a SMILES is read from it.
Attribute: nuclear beta-catenin stimulation
Lab book: enter the figure in %, no units written.

1) C1CCC(C(CC2CCCCN2)C2CCCCC2)CC1 (stereo unspecified) ... 1.1
2) O=c1[nH]cnc2c1ncn2[C@H]1CC[C@@H](CO)O1 ... -0.4
3) COC(=O)[C@H](Cc1ccccc1)NC(=O)[C@@H](N)CC(=O)O (H-Asp-Phe-OMe) ... 1.1
4) C#CCN(C)Cc1ccccc1 ... 3.2

So, COC(=O)C1=C(C)NC(C)=C(C(=O)OC(C)C)C1c1cccc2nonc12 (stereo unspecified) ? Its nuclear beta-catenin stimulation was 0.3

CC(N)C12CC3CC(CC(C3)C1)C2 (stereo unspecified) yielded nuclear beta-catenin stimulation of 0.3

In plain terms, NC(Cc1ccc(Cl)cc1)C(=O)O (stereo unspecified) has a documented nuclear beta-catenin stimulation of 2.1

Looking up CCN(CCCc1ccccc1)CCCc1ccccc1 , I see its nuclear beta-catenin stimulation listed as 4.5

Item: C[C@@H]1CC[C@@]2(OC1)O[C@H]1C[C@H]3[C@@H]4CC[C@H]5C[C@@H](O)CC[C@]5(C)[C@H]4CC(=O)[C@]3(C)[C@H]1[C@@H]2C | nuclear beta-catenin stimulation: 4.8

Lookup result for O=C1c2cccc(O)c2C(=O)c2c(O)cccc21 ; measured nuclear beta-catenin stimulation: 8.2

nuclear beta-catenin stimulation reported for this molecule COc1ccc(NS(=O)(=O)c2ccc(N)cc2)nn1 : 2.2
